- SYSTEM TESTED: Oxysterols receptor LXR-beta (Homo sapiens) (UniProt P55055)
- Sequence (P55055 whole entry, the tested form may be a part): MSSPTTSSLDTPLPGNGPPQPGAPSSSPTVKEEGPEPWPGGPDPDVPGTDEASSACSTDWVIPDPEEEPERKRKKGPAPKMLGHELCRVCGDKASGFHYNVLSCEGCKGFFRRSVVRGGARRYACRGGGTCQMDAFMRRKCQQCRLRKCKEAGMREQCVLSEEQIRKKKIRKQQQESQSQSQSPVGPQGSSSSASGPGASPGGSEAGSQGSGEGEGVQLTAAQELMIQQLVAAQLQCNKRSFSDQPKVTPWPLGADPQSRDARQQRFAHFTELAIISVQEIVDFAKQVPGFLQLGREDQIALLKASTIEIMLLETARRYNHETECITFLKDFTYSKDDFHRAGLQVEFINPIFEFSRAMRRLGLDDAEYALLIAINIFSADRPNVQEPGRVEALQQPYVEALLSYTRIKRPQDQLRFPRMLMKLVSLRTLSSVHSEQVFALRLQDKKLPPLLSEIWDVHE
- PROTOCOL NOTES: Activation of GAL4 fused human LXR beta expressed in HEK293 cells after 24 hrs by luciferase reporter gene assay relative to 22R-HC
- Type: cell-based
Please respond with condition met when measured Efficacy is strictly beneath 40%, and with condition not met in all other cases.

// below: answered molecules
CC[C@@H](C(C)C)[C@@H]1O[C@H]1[C@@H](C)[C@H]1CC[C@H]2[C@@H]3CC=C4C[C@@H](O)CC[C@]4(C)[C@H]3CC[C@]12C: condition met
CC(C)[C@@H](C)[C@@H]1O[C@H]1[C@@H](C)[C@H]1CC[C@H]2C3=CC=C4C[C@@H](O)CC[C@]4(C)[C@H]3CC[C@]12C: condition not met
CC[C@H](C(=O)C[C@@H](C)[C@H]1CC[C@H]2[C@@H]3CC=C4C[C@@H](O)CC[C@]4(C)[C@H]3CC[C@]12C)C(C)C: condition not met

Query: Please state whether Efficacy is below 40% for CC[C@@H](C(C)C)[C@H]1O[C@@H]1[C@@H](C)[C@H]1CC[C@H]2[C@@H]3CC=C4C[C@@H](O)CC[C@]4(C)[C@H]3CC[C@]12C
Reply: condition not met

Query: Input CC(C)[C@@H](C)[C@H]1O[C@@H]1[C@@H](C)[C@H]1CC[C@H]2C3=CC=C4C[C@@H](O)CC[C@]4(C)[C@H]3CC[C@]12C ; condition: Efficacy strictly below 40%. Does it hold?
Reply: condition met
